Measured remaining activity at 10 µM of individual entries
- target-entity: MARK3 (Homo sapiens, UniProt P27448)
- Sequence (P27448 whole entry): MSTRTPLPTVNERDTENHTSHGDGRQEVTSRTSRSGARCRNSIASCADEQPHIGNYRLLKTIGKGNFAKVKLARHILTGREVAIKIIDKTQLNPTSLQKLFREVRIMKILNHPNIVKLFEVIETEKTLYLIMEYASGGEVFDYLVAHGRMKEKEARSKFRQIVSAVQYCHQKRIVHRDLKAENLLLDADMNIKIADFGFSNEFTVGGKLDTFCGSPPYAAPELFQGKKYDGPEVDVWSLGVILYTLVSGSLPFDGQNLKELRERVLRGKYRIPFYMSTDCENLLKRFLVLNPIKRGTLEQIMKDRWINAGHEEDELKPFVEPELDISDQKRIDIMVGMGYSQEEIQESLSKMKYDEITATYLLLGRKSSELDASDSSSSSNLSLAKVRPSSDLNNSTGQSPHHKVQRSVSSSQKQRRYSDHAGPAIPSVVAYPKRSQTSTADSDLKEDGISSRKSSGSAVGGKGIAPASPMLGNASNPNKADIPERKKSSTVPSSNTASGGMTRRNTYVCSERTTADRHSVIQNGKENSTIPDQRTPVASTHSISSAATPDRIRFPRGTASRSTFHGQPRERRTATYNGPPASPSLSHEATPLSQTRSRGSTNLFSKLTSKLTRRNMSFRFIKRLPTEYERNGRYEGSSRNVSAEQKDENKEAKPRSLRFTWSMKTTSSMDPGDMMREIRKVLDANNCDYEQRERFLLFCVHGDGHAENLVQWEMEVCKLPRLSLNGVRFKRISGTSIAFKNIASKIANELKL
- assay-protocol: Kinase panel: MARK3
- Type: biochemical, human/mammalian
- condition-label: compound at 10 μM, read-out: % of activity respect of the control
# number only, unit % dropped from output

Solved cases (3 shown):
molecule	output-unit	remaining activity at 10 µM
CC(c1ccccc1)n1c(=O)[nH]c2ncc(-c3ccc(F)cc3)nc21 (stereo not shown)	%	110
O=c1[nH]c2ncc(-c3ccc(F)cc3)nc2n1CC1CC1	%	97
C[C@H](c1ccccc1)n1c(=O)[nH]c2ncc(-c3ccccc3)nc21	%	100

// next item, remaining activity at 10 µM requested
Given O=c1[nH]c2ncc(-c3ccc(F)cc3)nc2n1C1CCCCC1 , state its recorded remaining activity at 10 µM.
98

---

The entries below come with measured remaining activity at 10 µM values attached.
- target-entity: DYRK3 (Homo sapiens, UniProt O43781)
- Sequence (O43781 1-588): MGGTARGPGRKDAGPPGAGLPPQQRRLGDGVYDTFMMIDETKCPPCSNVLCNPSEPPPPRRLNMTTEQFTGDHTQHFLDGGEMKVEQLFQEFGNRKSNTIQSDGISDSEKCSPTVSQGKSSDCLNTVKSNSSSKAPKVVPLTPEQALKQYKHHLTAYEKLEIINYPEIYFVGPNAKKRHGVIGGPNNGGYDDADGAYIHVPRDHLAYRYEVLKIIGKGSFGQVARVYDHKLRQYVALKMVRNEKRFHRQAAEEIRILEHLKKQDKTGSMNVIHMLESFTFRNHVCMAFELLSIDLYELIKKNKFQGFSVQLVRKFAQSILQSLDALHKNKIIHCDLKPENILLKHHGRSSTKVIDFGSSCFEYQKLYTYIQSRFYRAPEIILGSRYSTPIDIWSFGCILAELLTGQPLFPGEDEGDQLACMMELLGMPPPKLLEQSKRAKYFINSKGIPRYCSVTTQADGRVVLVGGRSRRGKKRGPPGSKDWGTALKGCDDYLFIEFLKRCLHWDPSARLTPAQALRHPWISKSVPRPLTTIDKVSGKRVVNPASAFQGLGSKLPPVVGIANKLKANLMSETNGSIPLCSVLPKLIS
- assay-protocol: Kinase panel: DYRK3
- Format: biochemical, human/mammalian
- condition-label: compound at 10 μM, read-out: % of activity respect of the control
Response body: numeric value in %, unit text excluded.

Check out these entries, answers already filled in.
compound	target-entity	remaining activity at 10 µM (%)
CC(c1ccccc1)n1c(=O)[nH]c2ncc(-c3ccc(F)cc3)nc21 (stereo not shown)	DYRK3 (Homo sapiens, UniProt O43781)	109
O=c1[nH]c2ncc(-c3ccc(F)cc3)nc2n1CC1CC1	DYRK3 (Homo sapiens, UniProt O43781)	108
C[C@H](c1ccccc1)n1c(=O)[nH]c2ncc(-c3ccccc3)nc21	DYRK3 (Homo sapiens, UniProt O43781)	100

Then this compound:
Which remaining activity at 10 µM is listed for O=c1[nH]c2ncc(-c3ccc(F)cc3)nc2n1C1CCCCC1 ?
99

---

- target-entity: p38a MAPK (Homo sapiens)
- Sequence (Q16539 whole entry): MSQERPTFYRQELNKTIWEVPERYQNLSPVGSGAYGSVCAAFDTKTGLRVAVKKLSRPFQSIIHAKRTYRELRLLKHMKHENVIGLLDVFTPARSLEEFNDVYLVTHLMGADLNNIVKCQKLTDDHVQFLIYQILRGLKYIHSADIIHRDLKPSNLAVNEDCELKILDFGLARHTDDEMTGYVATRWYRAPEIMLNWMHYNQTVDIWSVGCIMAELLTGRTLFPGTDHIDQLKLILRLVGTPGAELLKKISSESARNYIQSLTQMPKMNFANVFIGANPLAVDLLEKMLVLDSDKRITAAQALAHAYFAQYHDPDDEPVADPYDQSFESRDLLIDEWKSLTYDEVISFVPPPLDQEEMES
- assay-protocol: Kinase panel: p38a MAPK
- Format: biochemical, human/mammalian
- condition-label: compound at 10 μM, read-out: % of activity respect of the control
measured-attribute: remaining activity at 10 µM (%)
Write the answer as a number in %, unit excluded.

compound	output-unit	remaining activity at 10 µM
O=c1[nH]c2ncc(-c3ccc(F)cc3)nc2n1C1CCCCC1	%	86
O=c1[nH]c2ncc(-c3ccc(F)cc3)nc2n1CC1CC1	%	87
C[C@H](c1ccccc1)n1c(=O)[nH]c2ncc(-c3ccccc3)nc21	%	88

Request the reported remaining activity at 10 µM associated with CC(c1ccccc1)n1c(=O)[nH]c2ncc(-c3ccc(F)cc3)nc21 (stereo not shown)
88

---

- target-entity: UniProtKB P17252
- assay-protocol: Kinase panel: PKCa
- Type: biochemical, human/mammalian
- condition-label: compound at 10 μM, read-out: % of activity respect of the control
Some compounds, each annotated with its measured remaining activity at 10 µM.
All answers are understood in %, so give the number only.

These solved cases illustrate the format of a correct answer.
compound	output-unit	readout-number
C[C@H](c1ccccc1)n1c(=O)[nH]c2ncc(-c3ccccc3)nc21	%	98
O=c1[nH]c2ncc(-c3ccc(F)cc3)nc2n1CC1CC1	%	106
CC(c1ccccc1)n1c(=O)[nH]c2ncc(-c3ccc(F)cc3)nc21 (stereo not shown)	%	101

Query compound follows.
Value lookup for remaining activity at 10 µM; key = O=c1[nH]c2ncc(-c3ccc(F)cc3)nc2n1C1CCCCC1
94

---

Entries and their solubility kinetic values follow.
- assay-protocol: Kinetic aqueous solubility (laser nephelometry)
- Format: physicochemical
- condition-label: Milli-Q water with 2.5% DMSO, kinetic from dmso stock, range 250–12 μM, read-out: Aq. Sol. (aqueous kinetic solubility)
Provide the reading as a plain figure in µM.

Answered cases to consult:
molecule-smiles	solubility kinetic [µM]
O=c1[nH]c2ncc(N3CCOCC3)nc2n1C1CCCCC1	220
c1cncc(-c2cnc3[nH]nc(C4CCCCC4)c3c2)c1	250
O=c1[nH]c2ncc(-c3ccccc3)nc2n1C1CCCCC1	110

Now, please, on to the next compound.
# solubility kinetic lookup, item c1ccc(-c2cnc3[nH]nc(C4CCCCC4)c3c2)cc1
20

---

Each entry below lists one item and its recorded remaining activity at 10 µM value.
- target-entity: BTK (Homo sapiens, UniProt Q06187)
- Sequence (Q06187 whole entry): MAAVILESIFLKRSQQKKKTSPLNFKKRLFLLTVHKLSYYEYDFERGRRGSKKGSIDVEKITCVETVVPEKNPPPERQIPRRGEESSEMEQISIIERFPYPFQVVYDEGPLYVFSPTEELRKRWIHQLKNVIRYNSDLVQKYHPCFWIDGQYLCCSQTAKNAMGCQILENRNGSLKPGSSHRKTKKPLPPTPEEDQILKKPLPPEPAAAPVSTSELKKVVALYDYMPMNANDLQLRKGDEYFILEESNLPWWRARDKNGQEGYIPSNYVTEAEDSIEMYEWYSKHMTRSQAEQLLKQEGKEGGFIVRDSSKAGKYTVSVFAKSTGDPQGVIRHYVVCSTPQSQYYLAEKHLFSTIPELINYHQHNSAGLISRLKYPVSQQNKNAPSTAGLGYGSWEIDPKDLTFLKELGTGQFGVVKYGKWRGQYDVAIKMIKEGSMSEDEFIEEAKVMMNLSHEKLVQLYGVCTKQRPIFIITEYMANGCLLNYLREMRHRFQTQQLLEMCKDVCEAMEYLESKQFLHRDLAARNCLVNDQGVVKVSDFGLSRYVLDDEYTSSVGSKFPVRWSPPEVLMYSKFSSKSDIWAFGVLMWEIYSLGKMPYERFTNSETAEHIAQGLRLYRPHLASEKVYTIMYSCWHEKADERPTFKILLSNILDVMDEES
- assay-protocol: Kinase panel: BTK
- Format: biochemical, human/mammalian
- condition-label: compound at 10 μM, read-out: % of activity respect of the control
# number only, unit % dropped from output

Known remaining activity at 10 µM results, listed for orientation:
compound	target-entity	remaining activity at 10 µM (%)
O=c1[nH]c2ncc(-c3ccc(F)cc3)nc2n1CC1CC1	BTK (Homo sapiens, UniProt Q06187)	104
C[C@H](c1ccccc1)n1c(=O)[nH]c2ncc(-c3ccccc3)nc21	BTK (Homo sapiens, UniProt Q06187)	97
O=c1[nH]c2ncc(-c3ccc(F)cc3)nc2n1C1CCCCC1	BTK (Homo sapiens, UniProt Q06187)	111

Turning to the following compound.
Look up remaining activity at 10 µM for this compound: CC(c1ccccc1)n1c(=O)[nH]c2ncc(-c3ccc(F)cc3)nc21 (stereo not shown)
113

---

- target-entity: CHK1 (Homo sapiens, UniProt O14757)
- Sequence (O14757 1-476): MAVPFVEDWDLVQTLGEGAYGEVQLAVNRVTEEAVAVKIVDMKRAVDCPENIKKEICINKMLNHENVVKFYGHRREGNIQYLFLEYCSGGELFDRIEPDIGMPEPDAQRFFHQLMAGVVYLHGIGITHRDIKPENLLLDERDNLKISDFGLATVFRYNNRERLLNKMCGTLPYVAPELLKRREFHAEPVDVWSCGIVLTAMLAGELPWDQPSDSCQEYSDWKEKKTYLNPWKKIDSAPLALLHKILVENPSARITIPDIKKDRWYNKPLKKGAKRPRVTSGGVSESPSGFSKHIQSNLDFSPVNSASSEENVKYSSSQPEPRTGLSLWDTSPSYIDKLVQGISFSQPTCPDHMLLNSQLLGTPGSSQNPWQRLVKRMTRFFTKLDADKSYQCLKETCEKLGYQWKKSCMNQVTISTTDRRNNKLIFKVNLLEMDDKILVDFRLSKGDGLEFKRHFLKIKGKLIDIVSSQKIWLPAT
- assay-protocol: Kinase panel: CHK1
- Format: biochemical, human/mammalian
- condition-label: compound at 10 μM, read-out: % of activity respect of the control
measured-attribute: remaining activity at 10 µM (%)
Number in %, nothing else.

Reference set (3 entries):
molecule	remaining activity at 10 µM (%)
C[C@H](c1ccccc1)n1c(=O)[nH]c2ncc(-c3ccccc3)nc21 [Compound 14]	94
O=c1[nH]c2ncc(-c3ccc(F)cc3)nc2n1C1CCCCC1 [Compound 12]	96
CC(c1ccccc1)n1c(=O)[nH]c2ncc(-c3ccc(F)cc3)nc21 (stereo not shown) [Compound 1]	100

Lab request: please report remaining activity at 10 µM under test system CHK1 (Homo sapiens, UniProt O14757) for O=c1[nH]c2ncc(-c3ccc(F)cc3)nc2n1CC1CC1 [Compound 10]
90

---

- target-entity: EPH-B3 (Homo sapiens)
- Sequence (P54753 34-998): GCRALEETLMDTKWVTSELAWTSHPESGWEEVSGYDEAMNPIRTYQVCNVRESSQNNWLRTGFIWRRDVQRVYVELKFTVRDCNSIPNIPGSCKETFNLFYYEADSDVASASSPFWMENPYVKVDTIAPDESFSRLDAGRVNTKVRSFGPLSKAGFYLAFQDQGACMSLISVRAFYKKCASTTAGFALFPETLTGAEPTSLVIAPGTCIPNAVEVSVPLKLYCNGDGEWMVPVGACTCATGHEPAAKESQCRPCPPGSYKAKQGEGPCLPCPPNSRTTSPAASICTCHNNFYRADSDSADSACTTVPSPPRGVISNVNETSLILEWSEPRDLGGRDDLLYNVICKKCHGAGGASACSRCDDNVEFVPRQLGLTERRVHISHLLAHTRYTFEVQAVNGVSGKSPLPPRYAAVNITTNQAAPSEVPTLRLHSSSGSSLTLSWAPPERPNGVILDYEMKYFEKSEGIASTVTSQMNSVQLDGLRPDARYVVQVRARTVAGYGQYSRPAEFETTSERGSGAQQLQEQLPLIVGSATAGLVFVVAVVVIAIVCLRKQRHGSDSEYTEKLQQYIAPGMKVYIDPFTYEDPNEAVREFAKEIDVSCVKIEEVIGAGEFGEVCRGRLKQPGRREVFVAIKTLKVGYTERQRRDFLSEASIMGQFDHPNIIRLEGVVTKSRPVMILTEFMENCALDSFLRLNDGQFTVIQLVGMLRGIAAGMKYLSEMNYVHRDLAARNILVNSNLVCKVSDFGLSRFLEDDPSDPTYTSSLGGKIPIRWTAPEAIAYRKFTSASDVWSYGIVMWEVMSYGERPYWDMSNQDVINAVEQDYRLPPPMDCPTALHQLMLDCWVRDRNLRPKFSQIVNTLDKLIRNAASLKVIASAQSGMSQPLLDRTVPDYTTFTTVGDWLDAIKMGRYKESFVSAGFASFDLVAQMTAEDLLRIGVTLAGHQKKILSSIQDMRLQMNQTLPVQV
- assay-protocol: Kinase panel: EPH-B3
- Format: biochemical, human/mammalian
- condition-label: compound at 10 μM, read-out: % of activity respect of the control
measured-attribute: remaining activity at 10 µM (%)
# output: bare number, implied unit %

compound	output-unit	remaining activity at 10 µM
O=c1[nH]c2ncc(-c3ccc(F)cc3)nc2n1CC1CC1 [Compound 10]	%	92

Hi! What's the reported remaining activity at 10 µM for C[C@H](c1ccccc1)n1c(=O)[nH]c2ncc(-c3ccccc3)nc21 [Compound 14] on EPH-B3 (Homo sapiens)?
102

Find the measured remaining activity at 10 µM: item O=c1[nH]c2ncc(-c3ccc(F)cc3)nc2n1C1CCCCC1 [Compound 12] , target or system EPH-B3 (Homo sapiens).
110

Given the entry CC(c1ccccc1)n1c(=O)[nH]c2ncc(-c3ccc(F)cc3)nc21 (stereo not shown) [Compound 1] , what remaining activity at 10 µM was observed with EPH-B3 (Homo sapiens)?
113
